# TGT: class C enzyme AmpC (Enterobacter cloacae, UniProt P05364)
# Sequence (P05364 21-381): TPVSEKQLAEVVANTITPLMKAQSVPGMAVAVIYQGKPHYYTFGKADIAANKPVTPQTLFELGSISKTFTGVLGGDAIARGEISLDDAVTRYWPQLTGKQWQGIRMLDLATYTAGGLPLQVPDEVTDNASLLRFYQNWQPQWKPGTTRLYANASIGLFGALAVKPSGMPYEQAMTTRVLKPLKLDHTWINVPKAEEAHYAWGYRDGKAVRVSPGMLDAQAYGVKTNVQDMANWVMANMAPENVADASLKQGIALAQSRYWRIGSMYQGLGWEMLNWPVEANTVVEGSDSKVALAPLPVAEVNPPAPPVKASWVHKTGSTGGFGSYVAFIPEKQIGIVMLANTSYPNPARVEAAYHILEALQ
# EXPERIMENTAL PROTOCOL: biochemical
# Parameters: species or system Enterobacter cloaca
pIC50: −log10 of the molar value.
MEASUREMENT LABEL: pIC50

> print(dat)
                                   molecule  measurement.label  recorded.value
1  O=C([O-])C1=CS[C@@H]2/C(=C\c3cc4n(n3)CCSC4)C(=O)N12.[Na+] [Example 11, sodium salt]              pIC50            8.92
2  O=C([O-])C1=CS[C@@H]2/C(=C\c3cc4n(n3)CCCC4)C(=O)N12.[Na+] [Example 9, sodium salt]              pIC50            8.49
3  O=C([O-])C1=CS[C@@H]2/C(=C\c3cc4n(n3)CSC4)C(=O)N12.[Na+] [Example 12, sodium salt]              pIC50            8.82
4  CC1(C)Cc2cc(/C=C3/C(=O)N4C(C(=O)[O-])=CS[C@H]34)nn2C1.[Na+] [Example 26, sodium salt]              pIC50            8.64
5  O=C([O-])C1=CS[C@@H]2/C(=C\c3cc4n(n3)CCO4)C(=O)N12.[Na+] [Example 33, sodium salt]              pIC50            9.07
6  O=C([O-])C1=CS[C@@H]2/C(=C\c3cn4c(n3)CSC4)C(=O)N12.[Na+] [Example 13, sodium salt]              pIC50            8.51

====

# TGT: class A β-lactamase Imi-1 (Enterobacter cloacae)
# Sequence (Q46991 28-292): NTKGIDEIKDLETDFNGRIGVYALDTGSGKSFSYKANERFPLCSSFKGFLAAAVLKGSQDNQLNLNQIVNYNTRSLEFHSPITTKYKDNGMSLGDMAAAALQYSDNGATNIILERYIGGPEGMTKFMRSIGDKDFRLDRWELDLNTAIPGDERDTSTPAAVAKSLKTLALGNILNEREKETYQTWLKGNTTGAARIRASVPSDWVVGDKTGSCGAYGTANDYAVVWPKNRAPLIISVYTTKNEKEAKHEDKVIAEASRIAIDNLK
# EXPERIMENTAL PROTOCOL: IC50 determination, β-lactamase inhibition (nitrocefin, spectrophotometric)
# Assay type: biochemical
# TEST SETTINGS: enzyme 7.1 nM; 10 minutes preincubation at 25° C.; nitrocefin 50 μg/ml; pH 7.0; read-out: IC50 (nM) Class A Imi
Where a name gives a salt, the structure may show the parent alone.
MEASUREMENT LABEL: IC50

> print(dat)
                                    molecule  measurement.label  recorded.value
 1  CN1Cc2nc(/C=C3/C(=O)N4C(C(=O)O)=CS[C@H]34)cn2CC1=O [Example 10, sodium salt]               IC50           65 nM
 2  O=C(O)C1=CS[C@@H]2/C(=C\c3cc4n(n3)CCNC4)C(=O)N12 [Example 25, sodium salt]               IC50          123 nM
 3  O=C([O-])C1=CS[C@@H]2/C(=C\c3cn4c(n3)CSC4)C(=O)N12.[Na+] [Example 13, sodium salt]               IC50           16 nM
 4  CN1CCn2cc(/C=C3/C(=O)N4C(C(=O)O)=CS[C@H]34)nc2C1 [Example 2, sodium salt]               IC50           22 nM
 5  O=C([O-])C1=CS[C@@H]2/C(=C\c3cc4n(n3)CSC4)C(=O)N12.[Na+] [Example 12, sodium salt]               IC50           56 nM
 6  O=C(O)C1=CS[C@@H]2/C(=C\c3cc4n(n3)CCC4)C(=O)N12 [Example 8, sodium salt]               IC50           50 nM
 7  O=C(O)C1=CS[C@@H]2/C(=C\c3cc4n(n3)CCOC4=O)C(=O)N12               IC50           68 nM
 8  O=C(O)C1=CS[C@@H]2/C(=C\c3cc4n(n3)CCS(=O)(=O)C4)C(=O)N12 [Example 24, sodium salt]               IC50           56 nM
 9  CCOC(=O)N1CCc2sc(C=C3C(=O)N4C(C(=O)O)=CSC34)cc2C1 (stereo not shown)               IC50           50 nM
10  O=C(O)C1=CSC2C(=Cc3cn4c(n3)CCCCC4)C(=O)N12 (stereo not shown)               IC50         2700 nM
11  O=C(O)C1=CSC2C(=Cc3cc4c(s3)CCSC4)C(=O)N12 (stereo not shown)               IC50           25 nM
12  CC(=O)N1CCc2sc(/C=C3/C(=O)N4C(C(=O)[O-])=CS[C@H]34)cc2C1.[Na+] (single isomer, unassigned) [Example 34, Sodium salt]               IC50           34 nM
13  O=C([O-])C1=CS[C@@H]2/C(=C\c3cc4n(n3)CCCO4)C(=O)N12.[Na+] [Example 36, sodium salt]               IC50          413 nM
14  O=C(O)C1=CS[C@@H]2/C(=C\c3cc4c(s3)CCN(C(=O)c3cccnc3)C4)C(=O)N12               IC50           42 nM
15  O=C(O)C1=CSC2C(=Cc3cc4c(s3)CCOC4)C(=O)N12 (stereo not shown)               IC50          8.6 nM
16  O=C(O)C1=CS[C@@H]2/C(=C\c3cc4c(s3)CCN(Cc3ccccc3)C4)C(=O)N12               IC50          2.1 nM
17  O=C(O)C1=CS[C@@H]2/C(=C\c3cc4c(s3)CCN(C(=O)Cc3ccccc3)C4)C(=O)N12               IC50           40 nM
18  O=C([O-])C1=CS[C@@H]2/C(=C\c3cc4n(n3)CCSC4)C(=O)N12.[Na+] [Example 11, sodium salt]               IC50           18 nM
19  O=C(O)C1=CS[C@@H]2/C(=C\c3cn4c(n3)CN(Cc3ccccc3)CC4)C(=O)N12 [Example 20, sodium salt]               IC50          9.6 nM
20  O=C(O)C1=CS[C@@H]2/C(=C\c3cc4c(o3)CCC4)C(=O)N12 [Example 27, sodium salt]               IC50          5.5 nM
21  O=C([O-])C1=CS[C@@H]2/C(=C\c3cc4n(n3)CCO4)C(=O)N12.[Na+] [Example 33, sodium salt]               IC50           59 nM
22  O=C([O-])C1=CS[C@@H]2/C(=C\c3cc4n(n3)CSC4)C(=O)N12.[Na+] [Example 31, sodium salt]               IC50           56 nM
